# TESTED TARGET: CYP3A4 (Homo sapiens)
# Sequence (P08684 whole entry, canonical isoform): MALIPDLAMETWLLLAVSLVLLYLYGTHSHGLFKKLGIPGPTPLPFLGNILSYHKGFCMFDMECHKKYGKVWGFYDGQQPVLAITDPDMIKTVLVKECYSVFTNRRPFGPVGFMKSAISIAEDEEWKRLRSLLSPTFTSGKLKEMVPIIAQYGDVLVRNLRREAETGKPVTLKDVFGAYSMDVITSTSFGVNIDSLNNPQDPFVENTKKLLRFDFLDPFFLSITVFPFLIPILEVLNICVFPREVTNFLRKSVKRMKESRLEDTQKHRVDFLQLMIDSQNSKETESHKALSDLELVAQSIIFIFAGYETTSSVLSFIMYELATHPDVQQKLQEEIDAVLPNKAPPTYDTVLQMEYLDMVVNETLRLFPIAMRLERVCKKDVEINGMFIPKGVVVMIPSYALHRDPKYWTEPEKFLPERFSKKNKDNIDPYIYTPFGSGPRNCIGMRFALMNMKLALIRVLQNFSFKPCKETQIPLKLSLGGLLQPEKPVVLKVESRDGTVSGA
# PROTOCOL TEXT: CYP inhibition assay, recombinant isoform, fluorescence
# Type: biochemical
# RECORDED CONDITIONS: human
Where a SMILES comes first, the peptide text is derived from it. [ ]: non-standard residue; d: D form. The star is where a group is joined. d(aIle) = CC[C@H](C)[C@@H](N)C(=O)O; X1 = CC[C@H](C)CCCCC(=O)*; dDab = NCC[C@@H](N)C(=O)O; Dab = NCC[C@H](N)C(=O)O
MEASURED ATTRIBUTE: inhibition at 25 min, 3 µM

Noted inhibition at 25 min, 3 µM for CC[C@H](C)CCCCC(=O)NCC(=O)N[C@H](CCN)C(=O)NCC(=O)N[C@H](CO)C(=O)N[C@H](Cc1c[nH]c2ccccc12)C(=O)N[C@@H](CO)C(=O)N[C@@H](CCN)C(=O)N[C@H](CCN)C(=O)N[C@H](C(=O)N[C@@H](CCC(=O)O)C(=O)N[C@H](C(=O)N[C@@H](C(=O)N[C@@H](CO)C(=O)O)[C@@H](C)CC)[C@@H](C)CC)[C@@H](C)CC [Tridecaptin M, tridecaptin M] (X1-G[dDab]G[dS][dW]S[Dab][dDab]IEI[d(aIle)]S-OH) , tested on CYP3A4 (Homo sapiens): 9%

* * *

# TESTED TARGET: CYP2C9 (Homo sapiens)
# Sequence (P11712 whole entry, canonical isoform): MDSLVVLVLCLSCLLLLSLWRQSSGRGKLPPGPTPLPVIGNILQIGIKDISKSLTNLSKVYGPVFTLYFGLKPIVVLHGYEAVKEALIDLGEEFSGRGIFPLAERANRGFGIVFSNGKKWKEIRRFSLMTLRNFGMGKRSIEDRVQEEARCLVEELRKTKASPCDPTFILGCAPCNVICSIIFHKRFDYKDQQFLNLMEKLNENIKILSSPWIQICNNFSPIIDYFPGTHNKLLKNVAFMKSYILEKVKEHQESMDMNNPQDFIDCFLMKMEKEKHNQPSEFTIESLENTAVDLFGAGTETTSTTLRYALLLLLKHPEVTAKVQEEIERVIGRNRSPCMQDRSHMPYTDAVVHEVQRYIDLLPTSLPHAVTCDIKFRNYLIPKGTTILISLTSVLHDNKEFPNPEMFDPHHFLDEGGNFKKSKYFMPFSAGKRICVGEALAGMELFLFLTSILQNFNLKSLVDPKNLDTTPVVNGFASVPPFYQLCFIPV
# PROTOCOL TEXT: CYP inhibition assay, recombinant isoform, fluorescence
# Assay type: biochemical
# RECORDED CONDITIONS: human
Where a SMILES comes first, the peptide text is derived from it. [ ]: non-standard residue; d: D form. The star is where a group is joined. d(aIle) = CC[C@H](C)[C@@H](N)C(=O)O; X1 = CC[C@H](C)CCCCC(=O)*; dDab = NCC[C@@H](N)C(=O)O; Dab = NCC[C@H](N)C(=O)O
MEASURED ATTRIBUTE: inhibition at 25 min, 1 µM (%)
// return numeric value only (unit: %, not printed)

Form field inhibition at 25 min, 1 µM, entry CC[C@H](C)CCCCC(=O)NCC(=O)N[C@H](CCN)C(=O)NCC(=O)N[C@H](CO)C(=O)N[C@H](Cc1c[nH]c2ccccc12)C(=O)N[C@@H](CO)C(=O)N[C@@H](CCN)C(=O)N[C@H](CCN)C(=O)N[C@H](C(=O)N[C@@H](CCC(=O)O)C(=O)N[C@H](C(=O)N[C@@H](C(=O)N[C@@H](CO)C(=O)O)[C@@H](C)CC)[C@@H](C)CC)[C@@H](C)CC [Tridecaptin M, tridecaptin M] (X1-G[dDab]G[dS][dW]S[Dab][dDab]IEI[d(aIle)]S-OH) : 0.05

* * *

# TESTED TARGET: CYP2D6 (Homo sapiens, UniProt P10635)
# Sequence (P10635 whole entry, canonical isoform): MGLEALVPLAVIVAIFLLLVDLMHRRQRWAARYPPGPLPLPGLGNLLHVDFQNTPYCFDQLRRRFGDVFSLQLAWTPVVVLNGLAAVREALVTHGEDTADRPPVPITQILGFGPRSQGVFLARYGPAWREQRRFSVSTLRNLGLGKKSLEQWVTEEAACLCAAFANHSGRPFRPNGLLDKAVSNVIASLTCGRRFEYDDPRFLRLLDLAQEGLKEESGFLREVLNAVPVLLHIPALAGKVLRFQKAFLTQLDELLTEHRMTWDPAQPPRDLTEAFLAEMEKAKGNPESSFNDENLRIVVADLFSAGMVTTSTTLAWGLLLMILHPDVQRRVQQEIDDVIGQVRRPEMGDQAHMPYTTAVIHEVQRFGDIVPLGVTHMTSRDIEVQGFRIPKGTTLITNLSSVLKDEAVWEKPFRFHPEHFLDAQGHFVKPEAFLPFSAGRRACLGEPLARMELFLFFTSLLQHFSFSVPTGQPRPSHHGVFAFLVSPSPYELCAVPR
# PROTOCOL TEXT: CYP inhibition assay, recombinant isoform, fluorescence
# Type: biochemical
# RECORDED CONDITIONS: human, recombinant CYP2D6; 0.0003 µM; read-out: % inhibition CYP 2D6
MEASURED ATTRIBUTE: inhibition at 25 min, 0.0003 µM

Noted inhibition at 25 min, 0.0003 µM for C=C[C@H]1C[N@@]2CC[C@H]1C[C@@H]2[C@@H](O)c1ccnc2ccc(OC)cc12 [Quinidine, reference compound] , tested on CYP2D6 (Homo sapiens, UniProt P10635): < 0%

The measurements presented in this section are drawn from paper PMC12486805.
